I'd be grateful if you could share measured chromatographic logP for these entries.
# assayComment: logP by HPLC on reversed-phase columns (EEC Directive 79/831 Annex V.A8)
# Format: physicochemical
# measurementConditions: pH 2.7, log p [b]
Please state the value as a number alone, without comment.

Exercise: Entry "Clc1cnc(Nc2cccc(C3OCCO3)c2)nc1NC1CC1" : reported chromatographic logP = ?
Solution: 1.59

Exercise: Entry "CC1(c2ccc(Nc3ncc(Cl)c(NC4CC4)n3)cc2)OCCO1" : reported chromatographic logP = ?
Solution: 1.84

Exercise: Entry CCN(CC)CC1COC(c2cccc(Nc3ncc(Cl)c(NC4CC4)n3)c2)O1 (stereo not shown) : reported chromatographic logP = ?
Solution: 1.07

Exercise: Entry "Clc1cnc(Nc2cccc(C3SCCCS3)c2)nc1NC1CC1" : reported chromatographic logP = ?
Solution: 2.44

Exercise: Entry Clc1cnc(Nc2cccc(C3OCCS3)c2)nc1NC1CC1 (stereo not shown) : reported chromatographic logP = ?
Solution: 2.05

Exercise: Entry "Clc1cnc(Nc2cccc(C3OCCCO3)c2)nc1NC1CC1" : reported chromatographic logP = ?
Solution: 1.69

Exercise: Entry "CC1(c2cccc(Nc3ncc(Cl)c(NC4CC4)n3)c2)OCCO1" : reported chromatographic logP = ?
Solution: 1.9
